# IC50 per record follows
Target: human Plasma Kallikrein (Homo sapiens (Human), UniProt P03952)
Sequence (P03952 391-638 limits assumed): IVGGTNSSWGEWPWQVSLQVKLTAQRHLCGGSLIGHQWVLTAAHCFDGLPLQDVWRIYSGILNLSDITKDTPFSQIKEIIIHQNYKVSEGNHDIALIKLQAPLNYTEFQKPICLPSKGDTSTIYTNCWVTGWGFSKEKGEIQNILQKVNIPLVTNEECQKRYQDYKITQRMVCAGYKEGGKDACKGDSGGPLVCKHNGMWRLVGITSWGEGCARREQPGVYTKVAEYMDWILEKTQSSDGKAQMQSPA
Sequence (P03952 20-390 partner limits assumed): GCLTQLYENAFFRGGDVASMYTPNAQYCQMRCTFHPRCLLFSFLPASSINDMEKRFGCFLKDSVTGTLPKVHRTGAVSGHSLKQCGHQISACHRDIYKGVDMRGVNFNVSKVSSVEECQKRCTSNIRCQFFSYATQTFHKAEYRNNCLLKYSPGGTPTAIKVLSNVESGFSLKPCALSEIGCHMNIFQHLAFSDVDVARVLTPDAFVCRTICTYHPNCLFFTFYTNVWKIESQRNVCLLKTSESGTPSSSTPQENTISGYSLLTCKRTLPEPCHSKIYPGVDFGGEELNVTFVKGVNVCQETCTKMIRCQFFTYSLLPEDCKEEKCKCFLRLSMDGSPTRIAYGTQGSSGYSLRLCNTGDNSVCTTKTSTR
Experiment: In vitro enzyme inhibition of human plasma kallikrein (Pro-Phe-Arg-AMC cleavage)
Type: biochemical
Conditions: human plasma kallikrein, PFR-AMC substrate, 37° C.; read-out: hPK IC50

{"Molecule": "COC(=O)c1nc(C(=O)NCc2c(C)cc(N)nc2C)nn1Cc1ccc2ncc(Cl)cc2c1 [Example 102]", "IC50": "> 10000 nM"}

## Input # query: IC50 of entry Cc1cc(N)nc(C)c1CNC(=O)c1c(C(F)(F)F)nnn1Cc1ccc2ncc(Cl)cc2c1 [Example 141]
## Output > 10000 nM

## Input Try this molecule next: Cc1nc(N)ccc1CNC(=O)c1cn(Cc2ccc3ncc(Cl)cc3c2)nc1C [Example 85]
## Output < 100 nM

## Input Try this molecule next: Cc1cc(N)nc(C)c1CNC(=O)c1cn(Cc2ccc3ncc(Cl)cc3c2)c2nc[nH]c(=O)c12 [Example 132]
## Output > 10000 nM

## Input Try this molecule next: N#Cc1nn(Cc2cc(F)c3ncc(Cl)cc3c2)cc1C(=O)NCc1ccc2[nH]cc(Cl)c2c1F [Example 57]
## Output 100 to 1000 nM

## Input Try this molecule next: Cc1nc(N)ccc1CNC(=O)c1ncc(Cc2ccc3ncc(Cl)cc3c2)o1 [Example 84]
## Output < 100 nM

## Input Try this molecule next: O=C(NCc1ccc2[nH]cc(Cl)c2c1F)c1nnc(Cc2ccc3ncc(Cl)cc3c2)o1 [Example 43]
## Output 100 to 1000 nM

## Input Try this molecule next: Cc1cnc2ccc(Cn3cc(C(=O)NCc4c(C)cc(N)nc4C)c(C#N)n3)cc2c1 [Example 81]
## Output < 100 nM

## Input Try this molecule next: Cc1cc(N)nc(C)c1CNC(=O)c1cnn(Cc2cc(F)c3ncc(Cl)cc3c2)c1C#N [Example 70]
## Output > 10000 nM

## Input Try this molecule next: N#Cc1nn(Cc2cc(F)c3ncc(Cl)cc3c2)cc1C(=O)NCc1cc2c(Cl)c[nH]c2cc1F [Example 53]
## Output < 100 nM

## Input Try this molecule next: Cc1cc(N)nc(C)c1CNC(=O)c1cnc(C(=O)c2ccc3ncc(Cl)cc3c2)o1 [Example 80]
## Output > 10000 nM

## Input Try this molecule next: CC(C)(O)c1cc(Cn2cc(C(=O)NCc3ccc4c(N)nccc4c3)c(C#N)n2)cc2cc(Cl)cnc12 [Example 59]
## Output < 100 nM

## Input Try this molecule next: Cc1cnc2c(C(N)=O)cc(Cn3cc(C(=O)NCc4c(C)cc(N)nc4C)c(C#N)n3)cc2c1 [Example 78]
## Output < 100 nM

## Input Try this molecule next: Cc1nc(N)ccc1CNC(=O)c1cn(Cc2ccc3ncc(C4CC4)cc3c2)nc1C#N [Example 66]
## Output < 100 nM

## Input Try this molecule next: Cc1cc(N)nc(C)c1CNC(=O)c1oc(Cc2ccc3ncc(Cl)cc3c2)nc1C#N [Example 87]
## Output < 100 nM

## Input Try this molecule next: COc1cc2c(C(=O)NCc3c(C)cc(N)nc3C)nn(Cc3ccc4ncc(Cl)cc4c3)c2cn1 [Example 122]
## Output < 100 nM
